experimental-protocol: activators of NF-kB expression in neurons, primary screen, cell-based, HTS (AID 1239)
particulars: human neuronal cells, NF-kB reporter expression; at 12.5 µM; stronger effect = higher value
About 3,100 (1.6%) of roughly 190,000 compounds were called active. The entries come from a sample that favours actives as a whole.
Measured fold change by item
result-type: fold change

> print(dat)
                                    molecule  result.number
 1  O=C(O)C1C2CC2CN1C(=O)c1ccc(Cl)cc1Cl (centres undefined)           0.99
 2   O=C(Nc1ccc(Br)cn1)c1ccc([N+](=O)[O-])o1           4.41
 3  COc1ccc(S(=O)(=O)N2CCOCC2)cc1NC(=O)CSc1ncnc2ccccc12           1.56
 4  CC(C)C(=O)Nc1cccc(NC(=O)c2ccc([N+](=O)[O-])cc2Cl)c1           1.13
 5  CC1(C)CC(=O)C(C2c3ccccc3S(=O)(=O)c3ccccc32)C(=O)C1           1.19
 6  COc1cccc(CN(C)CC(=O)Nc2ccccc2C(=O)Nc2ccccc2)c1           0.95
 7  O=C(Nc1cccc([N+](=O)[O-])c1)Nc1ccc(Cl)cn1            0.9
 8                  NC(=O)c1ccc(N2CCOCC2)nc1           0.96
 9  COC(=O)C(C)NC(=O)COc1ccc2ccccc2c1 (centres undefined)            1.1
10  COc1ccc(CC(=O)NC(C)CCc2ccccc2)cc1 (centres undefined)           1.03
11  O=C(/C=C/c1ccc2c(c1)OCO2)NCc1cn2cc(Cl)ccc2n1           1.09
12   CCOc1ccc2nc(NCCNC(=O)C(C)(C)C)c(C)cc2c1           1.12
13  N/C(=N\OC(=O)Cc1ccccc1[N+](=O)[O-])c1ccc(Br)cc1           1.12
14  COc1ccc(-c2[nH]ncc2CN(C)Cc2cc(C)[nH]n2)c(F)c1           0.97
15           O=C(c1cnn2ccccc12)N1CCc2ccccc21           3.74
16  CC(C(=O)NCC1CCCCC1)N(C)Cc1cccc(Cl)c1 (centres undefined)           1.18
17  COc1cc(CN2CCNC(=O)C2CC(=O)NCCc2ncccc2C)cc(OC)c1 (centres undefined)           1.05
18  CCOc1ccc(Nc2nc(Cl)nc(N3CCN(c4ccc(OC)cc4)CC3)n2)cc1           0.61
19  COc1ccc(CCNC(=O)CC2SC(=Nc3cc(C)cc(C)c3)NC2=O)cc1OC (centres undefined)           0.95
20            CNC(=S)Nc1ccc([N+](=O)[O-])cc1           1.13
21        O=C(CSc1cccc[n+]1[O-])c1ccc(Cl)cc1           1.21
22         CCn1c(=S)[nH]c2sc3c(c2c1=O)CCCCC3            1.2
23  O=C(Nc1ccc(Br)c2cccnc12)c1ccc(Cn2cc([N+](=O)[O-])cn2)o1           1.07
24                 COc1cccc(OCCCN2CCCCCC2)c1           1.08

Measured values drawn from PubChem BioAssay AID1239 for this set.
